% FTI listing for selected compounds.
- Test target: human farnesyltransferase (FTase) (Homo sapiens, UniProt P49354+P49356)
- Protocol notes: FTase inhibitory assay (fluorescence, Dansyl-GCVLS)
- Format: biochemical
- Test settings: inhibition of human FTase at 100 μM of tested compound; mean of two experiments
Note: unit % is implicit; provide only the numeric part.

Lookup: Sample COc1ccccc1CNC(=O)[C@@H]1C[S+]([O-])[C@@]2(C)c3ccccc3C(=O)N12 (some centres unmarked) [5bG] — what was its % FTI?
Found: 87

Lookup: Would you kindly repeat that for C[C@@]12SC[C@@H](C(=O)NCc3ccccc3Br)N1C(=O)c1ccccc12 [4bB] ?
Found: 39

Lookup: Same for COc1cccc(CNC(=O)[C@@H]2CS[C@@]3(C)c4ccccc4C(=O)N23)c1 [4bE]
Found: 56

Lookup: Also check COc1ccc(CNC(=O)[C@@H]2CS(=O)(=O)[C@@]3(C)c4ccccc4C(=O)N23)cc1 [7bF]
Found: 44

Lookup: Please answer likewise for COc1ccccc1CNC(=O)[C@@H]1CS(=O)(=O)[C@H]2c3ccccc3C(=O)N12 [7aG]
Found: 47

---
Lookup: # lookup: % FTI of COc1ccccc1CNC(=O)[C@@H]1CS(=O)(=O)[C@@]2(C)c3ccccc3C(=O)N12 [7bG]
Found: 74

Lookup: One more compound: COc1ccc(CNC(=O)[C@@H]2CS[C@@]3(C)c4ccccc4C(=O)N23)cc1OC [4bI]
Found: 78

Lookup: Repeat with C[C@]12c3ccccc3C(=O)N1[C@H](C(=O)NCc1ccc(Cl)cc1Cl)C[S+]2[O-] (some centres unmarked) [5bH]
Found: 31

* * *

- System: HS 578T (Breast Cancer)
- Protocol notes: NCI one dose, HS 578T
- Format: cell-based, human
- Test settings: 1.00E-5 Molar one dose
The reader will find reported Growth Percent values listed item by item below.
Answer shape: numeric part, then the unit.

Lookup: // map O=C(NCc1cccc(C(F)(F)F)c1)[C@@H]1CS[C@H]2c3ccccc3C(=O)N12 to recorded Growth Percent (system: HS 578T (Breast Cancer))
Found: 110.09%

Lookup: Next: C[C@@]12SC[C@@H](C(=O)NCc3cccc(C(F)(F)F)c3)N1C(=O)c1ccccc12
Found: 96.99%

Lookup: Same for C[C@@]12SC[C@@H](C(=O)NCc3ccccc3C(F)(F)F)N1C(=O)c1ccccc12
Found: 94.37%

Lookup: Please do the same for O=C(NCc1ccccc1C(F)(F)F)[C@@H]1CS[C@H]2c3ccccc3C(=O)N12 as well.
Found: 104.53%

Lookup: Okay, and O=C(NCc1ccccc1)[C@@H]1CS[C@H]2c3ccccc3C(=O)N12 ?
Found: 107.68%

* * *

Entries and their Growth Percent values follow.
- Tested on: SN12C (Renal Cancer)
- Protocol notes: NCI one dose, SN12C
- Assay type: cell-based, human
- Test settings: 1.00E-5 Molar one dose
Field format: number, assumed %, no unit text.

Lookup: Find the recorded Growth Percent belonging to O=C(NCc1ccccc1)[C@@H]1CS[C@H]2c3ccccc3C(=O)N12 [4aA] and report it.
Found: 98.99

Lookup: # repeat for COc1ccc(CNC(=O)[C@@H]2CS[C@@]3(C)c4ccccc4C(=O)N23)cc1 [4bF]
Found: 101.88

Lookup: Repeat for the following compound: O=C(NCc1ccccc1C(F)(F)F)[C@@H]1CS[C@H]2c3ccccc3C(=O)N12 [4aC]
Found: 101.45

Lookup: Please give the result for COc1cc(CNC(=O)[C@@H]2CS[C@H]3c4ccccc4C(=O)N23)cc(OC)c1OC [4aJ] too.
Found: 99.01

Lookup: Same for C[C@@]12SC[C@@H](C(=O)NCc3ccc(Cl)cc3Cl)N1C(=O)c1ccccc12 [4bH]
Found: 97.63

Lookup: Would you kindly repeat that for COc1ccccc1CNC(=O)[C@@H]1CS[C@H]2c3ccccc3C(=O)N12 [4aG] ?
Found: 110.50

Then there is this compound:
Lookup: Growth Percent lookup needed for COc1ccccc1CNC(=O)[C@@H]1CS[C@@]2(C)c3ccccc3C(=O)N12 [4bG] , thanks.
Found: 107.44
